target: Poly [ADP-ribose] polymerase 1 (Homo sapiens, UniProt P09874); assay: Inhibition of recombinant human PARP1 using histone as substrate after 1 hr in presence of biotinylated NAD+ by ELISA
Sequence (P09874 whole entry): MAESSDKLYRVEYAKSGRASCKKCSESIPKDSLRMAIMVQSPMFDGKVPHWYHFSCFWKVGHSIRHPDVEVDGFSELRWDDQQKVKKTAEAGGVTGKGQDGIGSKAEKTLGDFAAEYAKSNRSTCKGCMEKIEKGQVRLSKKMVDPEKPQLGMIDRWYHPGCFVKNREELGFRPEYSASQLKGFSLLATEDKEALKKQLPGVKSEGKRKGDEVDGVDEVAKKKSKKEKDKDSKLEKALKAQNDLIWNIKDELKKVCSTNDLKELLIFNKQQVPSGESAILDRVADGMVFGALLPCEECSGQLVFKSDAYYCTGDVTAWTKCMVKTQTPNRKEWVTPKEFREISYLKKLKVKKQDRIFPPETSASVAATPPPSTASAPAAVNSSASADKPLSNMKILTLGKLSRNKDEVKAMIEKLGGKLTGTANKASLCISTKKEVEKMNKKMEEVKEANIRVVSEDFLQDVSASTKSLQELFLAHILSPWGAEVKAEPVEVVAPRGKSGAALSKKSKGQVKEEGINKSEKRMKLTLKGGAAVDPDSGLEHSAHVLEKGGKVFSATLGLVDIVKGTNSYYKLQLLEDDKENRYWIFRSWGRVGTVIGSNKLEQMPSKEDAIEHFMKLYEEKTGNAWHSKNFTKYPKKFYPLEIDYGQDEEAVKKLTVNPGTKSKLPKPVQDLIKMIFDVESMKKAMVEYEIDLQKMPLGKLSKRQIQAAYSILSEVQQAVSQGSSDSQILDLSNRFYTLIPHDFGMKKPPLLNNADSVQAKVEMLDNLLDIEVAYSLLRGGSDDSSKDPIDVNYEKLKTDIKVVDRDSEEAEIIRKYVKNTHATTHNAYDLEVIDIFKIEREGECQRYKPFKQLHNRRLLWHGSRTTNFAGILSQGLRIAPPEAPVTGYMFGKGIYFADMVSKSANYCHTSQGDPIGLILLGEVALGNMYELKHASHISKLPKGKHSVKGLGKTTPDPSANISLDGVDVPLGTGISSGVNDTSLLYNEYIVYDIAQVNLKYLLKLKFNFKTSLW
readout-label: IC50 (nM)

cpd-smiles | test-target | measurement-unit | IC50
Nc1cc(C(F)(F)F)c(-c2nc(N3CCOCC3)nc(N3CCN(C(=O)c4cc(Cc5n[nH]c(=O)c6ccccc56)ccc4F)CC3)n2)cn1 | Poly [ADP-ribose] polymerase 1 (Homo sapiens, UniProt P09874) | nM | 9.55

1. O=C(c1cc(Cc2n[nH]c(=O)c3ccccc23)ccc1F)N1CCN(c2nc(-c3ccc4[nH]ccc4c3)nc(N3CCOCC3)n2)CC1
2. O=C(c1cc(Cc2n[nH]c(=O)c3ccccc23)ccc1F)N1CCN(c2nc(-c3cccc4[nH]ncc34)nc(N3CCOCC3)n2)CC1
3. Nc1ncc(-c2nc(N3CCOCC3)nc(N3CCN(C(=O)c4cc(Cc5n[nH]c(=O)c6ccccc56)ccc4F)CC3)n2)cc1C(F)(F)F
Q: Please rank these molecules by IC50 in descending order. Output spec: labels arranged per the requested ranking.
Ans: 3, 1, 2
(3: 1.12 nM, 1: 0.692 nM, 2: 0.437 nM)

====

molecular target: Phosphatidylinositol 4,5-bisphosphate 3-kinase catalytic subunit beta isoform (Homo sapiens); test: Inhibition of PI3Kbeta (unknown origin) using PIP2 as substrate measured after 1 hr by ADP-glo plus luminescence assay
Sequence (P42338 whole entry, canonical isoform): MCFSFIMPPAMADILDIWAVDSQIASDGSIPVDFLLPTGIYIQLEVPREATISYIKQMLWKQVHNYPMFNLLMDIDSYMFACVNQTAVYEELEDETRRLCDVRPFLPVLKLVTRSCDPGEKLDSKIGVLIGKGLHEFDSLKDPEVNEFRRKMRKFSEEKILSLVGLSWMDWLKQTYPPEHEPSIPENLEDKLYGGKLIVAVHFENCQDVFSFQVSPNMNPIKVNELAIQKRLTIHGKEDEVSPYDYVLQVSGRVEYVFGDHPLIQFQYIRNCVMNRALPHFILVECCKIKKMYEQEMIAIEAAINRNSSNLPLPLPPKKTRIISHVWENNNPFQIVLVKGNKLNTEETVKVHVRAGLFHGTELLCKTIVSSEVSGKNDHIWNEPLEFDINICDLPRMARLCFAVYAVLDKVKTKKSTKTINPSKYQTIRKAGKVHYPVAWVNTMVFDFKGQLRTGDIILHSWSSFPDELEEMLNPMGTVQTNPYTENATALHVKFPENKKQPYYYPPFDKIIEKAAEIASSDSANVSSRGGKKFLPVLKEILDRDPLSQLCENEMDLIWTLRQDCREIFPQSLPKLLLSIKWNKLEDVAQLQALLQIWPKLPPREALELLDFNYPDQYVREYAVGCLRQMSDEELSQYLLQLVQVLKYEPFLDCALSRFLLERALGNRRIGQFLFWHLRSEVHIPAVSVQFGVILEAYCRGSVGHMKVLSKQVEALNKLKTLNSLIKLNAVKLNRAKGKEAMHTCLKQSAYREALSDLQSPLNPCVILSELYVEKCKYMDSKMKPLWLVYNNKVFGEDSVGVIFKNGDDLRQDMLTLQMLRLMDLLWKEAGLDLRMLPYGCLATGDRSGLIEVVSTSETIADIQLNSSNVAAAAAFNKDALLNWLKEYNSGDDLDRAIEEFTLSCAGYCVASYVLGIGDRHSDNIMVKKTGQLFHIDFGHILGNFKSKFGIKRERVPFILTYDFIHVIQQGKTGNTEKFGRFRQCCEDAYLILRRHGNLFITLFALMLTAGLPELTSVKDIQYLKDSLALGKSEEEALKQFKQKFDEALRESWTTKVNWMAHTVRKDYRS
readout-label: IC50 (nM)
# unit: nM | format: bare number

Q: Using known records, supply IC50 for Nc1cc(C(F)(F)F)c(-c2nc3c(c(N4CCOCC4)n2)CCN(C(=O)c2cc(Cc4n[nH]c(=O)c5ccccc45)ccc2F)C3)cn1
Ans: 288

====

target: Phosphatidylinositol 4,5-bisphosphate 3-kinase catalytic subunit gamma isoform (Homo sapiens); assay: Inhibition of PI3Kgamma (unknown origin) using PIP2 as substrate measured after 1 hr by ADP-glo plus luminescence assay
Sequence (P48736 whole entry, canonical isoform): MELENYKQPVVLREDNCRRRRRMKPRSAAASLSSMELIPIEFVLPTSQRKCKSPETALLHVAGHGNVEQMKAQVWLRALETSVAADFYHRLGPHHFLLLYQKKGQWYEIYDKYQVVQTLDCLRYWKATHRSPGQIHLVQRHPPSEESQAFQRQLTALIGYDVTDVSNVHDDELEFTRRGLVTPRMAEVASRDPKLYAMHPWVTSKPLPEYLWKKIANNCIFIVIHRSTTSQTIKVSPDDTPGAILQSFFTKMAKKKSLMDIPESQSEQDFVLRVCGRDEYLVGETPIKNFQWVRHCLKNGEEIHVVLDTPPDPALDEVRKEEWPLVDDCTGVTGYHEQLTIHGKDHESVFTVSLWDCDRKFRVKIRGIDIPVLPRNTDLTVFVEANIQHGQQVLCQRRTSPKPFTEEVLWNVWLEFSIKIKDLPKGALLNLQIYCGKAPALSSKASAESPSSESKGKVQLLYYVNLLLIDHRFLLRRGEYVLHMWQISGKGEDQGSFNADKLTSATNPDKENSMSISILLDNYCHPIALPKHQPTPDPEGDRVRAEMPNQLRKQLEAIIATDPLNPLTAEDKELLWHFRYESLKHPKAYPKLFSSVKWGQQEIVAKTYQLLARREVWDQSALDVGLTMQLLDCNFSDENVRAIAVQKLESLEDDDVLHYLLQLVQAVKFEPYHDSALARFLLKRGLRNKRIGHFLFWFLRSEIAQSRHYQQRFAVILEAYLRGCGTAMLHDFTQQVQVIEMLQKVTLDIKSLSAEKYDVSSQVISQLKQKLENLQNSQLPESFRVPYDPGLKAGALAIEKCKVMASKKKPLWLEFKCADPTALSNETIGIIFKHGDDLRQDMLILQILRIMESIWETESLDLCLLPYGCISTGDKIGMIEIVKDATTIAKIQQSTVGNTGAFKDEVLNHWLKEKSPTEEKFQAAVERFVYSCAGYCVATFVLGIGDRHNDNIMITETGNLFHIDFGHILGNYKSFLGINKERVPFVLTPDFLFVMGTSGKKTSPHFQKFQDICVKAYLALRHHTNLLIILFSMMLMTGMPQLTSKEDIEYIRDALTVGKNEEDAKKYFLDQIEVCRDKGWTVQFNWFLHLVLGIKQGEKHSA
readout-label: IC50 (nM)
# unit: nM | format: bare number

Q: Using known records, supply IC50 for Nc1cc(C(F)(F)F)c(-c2nc3c(c(N4CCOCC4)n2)CCN(C(=O)c2cc(Cc4n[nH]c(=O)c5ccccc45)ccc2F)C3)cn1
Ans: 832

====

target: UniProt P09874; assay: Inhibition of recombinant human PARP1 using histone as substrate after 1 hr in presence of biotinylated NAD+ by ELISA
readout-label: IC50 (nM)

cpd-smiles | test-target | IC50 (nM)
Nc1ccc(-c2nc(N3CCOCC3)nc(N3CCN(C(=O)c4cc(Cc5n[nH]c(=O)c6ccccc56)ccc4F)CC3)n2)cn1 | UniProt P09874 | 1.07
O=C(c1cc(Cc2n[nH]c(=O)c3ccccc23)ccc1F)N1CCc2c(nc(-c3cccc4[nH]ncc34)nc2N2CCOCC2)C1 | UniProt P09874 | 6.17
Nc1ccc(-c2nc(N3CCOCC3)nc(N3CCN(C(=O)c4cc(Cc5n[nH]c(=O)c6ccccc56)ccc4F)CC3)n2)cc1F | UniProt P09874 | 0.832

A. Nc1cc(C(F)(F)F)c(-c2cc(N3CCN(C(=O)c4cc(Cc5n[nH]c(=O)c6ccccc56)ccc4F)CC3)nc(N3CCOCC3)n2)cn1
B. O=C(c1cc(Cc2n[nH]c(=O)c3ccccc23)ccc1F)N1CCc2c(nc(-c3cccc4[nH]ccc34)nc2N2CCOCC2)C1
C. Nc1ccc(-c2nc(N3CCOCC3)nc(N3CCN(C(=O)c4cc(Cc5n[nH]c(=O)c6ccccc56)ccc4F)CC3)n2)cc1
D. Nc1ccc(-c2nc3c(c(N4CCOCC4)n2)CCN(C(=O)c2cc(Cc4n[nH]c(=O)c5ccccc45)ccc2F)C3)cn1
Q: Reorder the items by IC50, least to greatest. Output spec: labels arranged per the requested ranking.
Ans: C, B, D, A

The origin of these recorded values is ChEMBL document CHEMBL4376860.
